TARGET_OR_TEST_SYSTEM: CDK7/cyclinH/MAT1 trimeric complex (Homo sapiens, UniProt P50613)
Sequence (P50613 whole entry): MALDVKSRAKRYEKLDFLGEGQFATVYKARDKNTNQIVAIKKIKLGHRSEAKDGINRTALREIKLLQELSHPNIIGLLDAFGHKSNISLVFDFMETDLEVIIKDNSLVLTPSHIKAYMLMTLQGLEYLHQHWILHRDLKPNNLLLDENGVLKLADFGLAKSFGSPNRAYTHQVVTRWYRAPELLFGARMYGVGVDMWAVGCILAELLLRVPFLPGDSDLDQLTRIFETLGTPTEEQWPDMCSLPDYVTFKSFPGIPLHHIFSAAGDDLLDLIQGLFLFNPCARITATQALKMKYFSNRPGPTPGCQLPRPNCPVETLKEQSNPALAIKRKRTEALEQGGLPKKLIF
Sequence (P51946 whole entry partner): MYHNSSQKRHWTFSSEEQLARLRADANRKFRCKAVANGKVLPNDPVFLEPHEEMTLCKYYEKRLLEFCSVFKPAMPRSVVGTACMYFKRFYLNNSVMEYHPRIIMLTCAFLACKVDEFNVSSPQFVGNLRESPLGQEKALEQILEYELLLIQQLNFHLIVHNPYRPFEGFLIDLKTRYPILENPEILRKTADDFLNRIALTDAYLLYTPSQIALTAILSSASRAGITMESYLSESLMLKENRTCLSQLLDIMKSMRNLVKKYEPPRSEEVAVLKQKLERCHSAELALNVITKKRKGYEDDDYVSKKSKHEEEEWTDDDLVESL
Sequence (P51948 whole entry partner): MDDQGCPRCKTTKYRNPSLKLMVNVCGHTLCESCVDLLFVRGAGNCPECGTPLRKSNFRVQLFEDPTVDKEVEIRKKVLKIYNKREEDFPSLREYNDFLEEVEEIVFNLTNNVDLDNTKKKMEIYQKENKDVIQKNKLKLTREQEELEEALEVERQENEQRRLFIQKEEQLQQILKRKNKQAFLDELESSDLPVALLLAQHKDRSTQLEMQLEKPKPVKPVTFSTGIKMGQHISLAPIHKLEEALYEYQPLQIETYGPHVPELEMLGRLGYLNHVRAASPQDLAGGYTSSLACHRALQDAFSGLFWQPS
TEST_DETAILS: In vitro CDK7 assay, potency of irreversible covalent inhibitors (kinact/KI), coupled PK/LDH ADP readout at 340 nm
CONDITION_NOTES: read-out: CDK7 (20 nM enz.) (kinact/KI, M^−1*s^−1), 20 nM enzyme
OUTCOME_MEASURE: kinact/KI (M⁻¹ s⁻¹)
// note: answer is a bare numeric in M⁻¹ s⁻¹

Query: Tell me reported kinact/KI for CC#CC(=O)N1CC[C@@H](N2CC(c3cc(C)c4c(c3)Nc3nccc(C5CCOCC5)c3CO4)C2)C1 (single isomer, unassigned) , tested with CDK7/cyclinH/MAT1 trimeric complex (Homo sapiens, UniProt P50613).
Response: 526

Query: Tell me reported kinact/KI for C=CC(=O)N1CCC(N2CC(c3cc(F)c4c(c3)Nc3nccc(C5CCOCC5)c3[C@H](C)O4)C2)CC1 (single isomer, unassigned) , tested with CDK7/cyclinH/MAT1 trimeric complex (Homo sapiens, UniProt P50613).
Response: 22

Query: Tell me reported kinact/KI for C=CC(=O)N1CC(N2CC[C@@H](c3cc4c(c(C)n3)O[C@H](C)c3c(N5CCOCC5)ccnc3N4)C2)C1 (single isomer, unassigned) [Compound 245] , tested with CDK7/cyclinH/MAT1 trimeric complex (Homo sapiens, UniProt P50613).
Response: 645

Query: Tell me reported kinact/KI for C=CC(=O)N1CC[C@H](N2CC(c3cc4c(c(C)n3)O[C@H](C)c3c(N5CCOCC5)ccnc3N4)C2)C1 (single isomer, unassigned) , tested with CDK7/cyclinH/MAT1 trimeric complex (Homo sapiens, UniProt P50613).
Response: 179

Query: Tell me reported kinact/KI for CC#CC(=O)N1CCC(N2CC(c3cc4c(c(C5CC5)n3)O[C@@H](C)c3c(N5CCOCC5)ccnc3N4)C2)CC1 (single isomer, unassigned) , tested with CDK7/cyclinH/MAT1 trimeric complex (Homo sapiens, UniProt P50613).
Response: 23.3

Query: Tell me reported kinact/KI for `C=CC(=O)N1CCC(N2CC(c3cc(Cl)c4c(c3C)Nc3nccc(C5CCOCC5)c3CO4)C2)CC1` , tested with CDK7/cyclinH/MAT1 trimeric complex (Homo sapiens, UniProt P50613).
Response: 63.1

Query: Tell me reported kinact/KI for C=CC(=O)N1CC(N2CC(c3cc4c(c(C)n3)O[C@H](C)c3c(C5CCOCC5)ccnc3N4)C2)C1 (single isomer, unassigned) , tested with CDK7/cyclinH/MAT1 trimeric complex (Homo sapiens, UniProt P50613).
Response: 342

Query: Tell me reported kinact/KI for C=CC(=O)N1CC[C@@H](N2CC(c3cc4c(c(C)n3)OCc3c(-c5cnn(C)c5)ccnc3N4)C2)C1 (single isomer, unassigned) , tested with CDK7/cyclinH/MAT1 trimeric complex (Homo sapiens, UniProt P50613).
Response: 105

Query: Tell me reported kinact/KI for CC#CC(=O)N1CC[C@H](N2CCC(c3cc4c(c(C)n3)OCc3c(N5CCOCC5)ccnc3N4)CC2)C1 (single isomer, unassigned) , tested with CDK7/cyclinH/MAT1 trimeric complex (Homo sapiens, UniProt P50613).
Response: 197

Query: Tell me reported kinact/KI for `C#Cc1cc2c(cc1C1CCN(C3CN(C(=O)C=C)C3)CC1)Nc1nccc(C3CCOCC3)c1CO2` , tested with CDK7/cyclinH/MAT1 trimeric complex (Homo sapiens, UniProt P50613).
Response: 1040

Query: Tell me reported kinact/KI for `C=CC(=O)N1CC(N2CCC(c3cc(C)c4c(c3)Nc3nccc(C5=CCS(=O)(=O)CC5)c3CO4)CC2)C1` , tested with CDK7/cyclinH/MAT1 trimeric complex (Homo sapiens, UniProt P50613).
Response: 640

Query: Tell me reported kinact/KI for C=CC(=O)N1CC[C@@H](N2CC(c3cc(C)c4c(c3)Nc3nccc(N5CCOCC5)c3CO4)C2)C1 (single isomer, unassigned) [Compound 327] , tested with CDK7/cyclinH/MAT1 trimeric complex (Homo sapiens, UniProt P50613).
Response: 1380
